Biological target: UniProt:P08173
Sequence (P08173 1-479): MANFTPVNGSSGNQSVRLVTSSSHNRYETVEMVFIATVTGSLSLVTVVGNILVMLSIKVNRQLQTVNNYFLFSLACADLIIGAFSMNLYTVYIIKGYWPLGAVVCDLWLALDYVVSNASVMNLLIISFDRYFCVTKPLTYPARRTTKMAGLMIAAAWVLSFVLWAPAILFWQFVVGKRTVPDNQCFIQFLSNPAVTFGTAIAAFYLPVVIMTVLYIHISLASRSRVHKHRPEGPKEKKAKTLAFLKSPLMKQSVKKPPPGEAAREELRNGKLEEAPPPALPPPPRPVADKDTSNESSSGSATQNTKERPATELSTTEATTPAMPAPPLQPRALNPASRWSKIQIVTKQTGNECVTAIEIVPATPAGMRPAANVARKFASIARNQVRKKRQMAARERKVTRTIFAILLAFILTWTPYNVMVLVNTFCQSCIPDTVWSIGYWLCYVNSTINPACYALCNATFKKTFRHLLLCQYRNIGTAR
Experiment: Calcium mobilization (FLIPR), ACh concentration-response curves, AV12 Gα15 hM4 cells
result_type: Kd (nM)
The answer is to be given in nM; state only the numeric part.

**Query** Item under review: COc1nc2sc(C(=O)NC3CC3)c(N)c2c(C)c1Cl . Reported Kd?
**Result** 200
